Origin of measurements: PubChem BioAssay

Test: RPMI8226 myeloma cell viability, profiling panel, resazurin fluorescence, basal, 24 h, PK04 Diversity Set (AID 1180);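 also: RPMI8826 multiple myeloma cell line at 5000 cells per well; test concentration not given here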
Settings: higher = more signal
Please respond with reported z-score for every item in the list.
Please give only the number in your answer, with no unit.

For O=C1OCCC=C[C@H]2OC34C=CCN(Cn5nnc6ccccc65)C(=O)[C@H]3N(CCCCCCO)C(=O)[C@@H]4C12 (stereo partly drawn) , what is its reported z-score?
-0.288

For O=C1O[C@H](c2ccccc2)[C@H](c2ccccc2)N2[C@H]1[C@@H](C(=O)N1CCN(c3ncccn3)CC1)[C@]1(C(=O)Nc3ccc(C#CC4(O)CCCCCC4)cc31)[C@H]2c1ccc(OCCO)cc1 , what is its reported z-score?
0.478

For CC[C@H]1C2=C3C(CC[C@H]4C(OCc5ccc(F)cc5C(F)(F)F)OC[C@](C)([C@@H]34)N(C(=O)OC(C)(C)C)C2)C(COC)C1COC (stereo partly drawn) , what is its reported z-score?
-0.932

For CN1C(=O)C2C=CC(C(O)COCc3ccccc3)N(N(c3ccccc3)c3ccccc3)C2C1=O (stereo not drawn) , what is its reported z-score?
-0.861

For O=C1NC(=O)C2C1C=CC(C(O)c1cccc3ccccc13)N2Nc1ccc(Cl)cc1Cl (stereo not drawn) , what is its reported z-score?
-1.84

For CC(CO)N1C(=O)[C@@H]2[C@H]3C(=O)OCC=C[C@H]3OC23C=CCN(Cc2ccccc2)C(=O)[C@@H]13 (stereo partly drawn) , what is its reported z-score?
1.28

For CC(C)C(=C=CC[C@H](O)c1ccc(OCCO)cc1)C[C@H](O)c1ccccn1 , what is its reported z-score?
0.986

For C=CCOC(=O)[C@H]1[C@@H]2C(=O)O[C@@H](c3ccccc3)[C@@H](c3ccccc3)N2[C@@H](c2ccc(OCCOC(=O)[C@@H]3C[C@@H]4C(=O)N[C@@H](CCCCNC(C)=O)C(=O)N4[C@@H]3c3ccc(O)cc3)cc2)[C@]12C(=O)Nc1ccc(I)cc12 , what is its reported z-score?
-0.533

For CCCCCCCCCCC(O)C1C=CC2C(=O)N(C)C(=O)C2N1Nc1ccc([N+](=O)[O-])cc1[N+](=O)[O-] (stereo not drawn) , what is its reported z-score?
-1.67

For CN1C(=O)C2C=CC(C(O)c3cccc(O)c3)N(Nc3ccccc3)C2C1=O (stereo not drawn) , what is its reported z-score?
-2.48

For C=CCC(OC(C)=O)[C@@H]1[C@@H](N(Cc2cc3ccccc3o2)C(=O)c2ccc(C)cc2)c2cc(OCCCO)ccc2N1C(=O)Cc1ccc(OC)cc1 (stereo partly drawn) , what is its reported z-score?
0.618

For CC(C)Cc1ccc(CN2CC[C@@H](NC(=O)Nc3ccccc3)C2)cc1 , what is its reported z-score?
-4.87

For CCCC[C@@H]1C[C@H]1[C@@H](NC(=O)c1ccccc1)c1ccc(C(F)(F)F)cc1 , what is its reported z-score?
0.329

For CC(C)(C)OC(=O)CC[C@]1(C(=O)NCc2ccccc2)N=C(c2ccc(OCCCO)cc2)O[C@H]1c1ccccc1CN=[N+]=[N-] , what is its reported z-score?
-0.551

For C=C(CCCC)/C(=C/C[C@@H](OC(=O)c1ccncc1)c1ccccc1OCCO)c1cnc2ccccc2c1 , what is its reported z-score?
0.133

For COc1ccc([Si](C)(C)[C@@H]2[C@@H](CC(=O)N3Cc4ccccc4C[C@H]3CO)O[C@]3(C(=O)N(C)c4ccccc43)[C@H]2C)cc1 , what is its reported z-score?
-4.65

For [N-]=[N+]=NCc1ccccc1[C@H]1OC(c2ccc(OCCCO)cc2)=N[C@@]1(CCS(=O)(=O)c1ccccc1)C(=O)N1CCCCC1 , what is its reported z-score?
-0.661

For COC(=O)[C@@]1(Cc2ccc(F)cc2)[C@H]2c3cc(C(=O)N(C)C)n(CCc4ccc(O)c(OC)c4)c3C[C@H]2CN1C(=O)c1ccccc1 , what is its reported z-score?
0.28

For COc1ccc([Si](C)(C)[C@H]2[C@H](CCn3cc([C@H](O)c4ccccc4)nn3)O[C@@]3(C(=O)N(Cc4ccc(N5C(=O)c6cccc7cccc5c67)cc4)c4ccccc43)[C@@H]2C)cc1 , what is its reported z-score?
-0.761

For COCCOC(=O)N1C(=O)[C@@]2(c3cc(C#Cc4ccc(OC)cc4)ccc31)[C@H](C(=O)Nc1nc3ccccc3s1)[C@H]1C(=O)O[C@H](c3ccccc3)[C@H](c3ccccc3)N1[C@@H]2c1ccc(O)cc1 , what is its reported z-score?
0.85

For COC(=O)[C@@]1(Cc2ccc(OC)cc2)[C@@H]2C(=CC(=O)[C@H]2CC(=O)C(=O)N(C)C)CN1C(=O)c1ccccc1 , what is its reported z-score?
-3.26

For O=C1OCC=C[C@H]2OC34C=CCN(Cc5ccccc5)C(=O)[C@H]3N(CCCCCCO)C(=O)[C@@H]4[C@@H]12 (stereo partly drawn) , what is its reported z-score?
0.517

For COc1ccc(CCN2C(=O)[C@@]3(Cc4ccccc42)c2ccccc2C(=O)N(Cc2ccccc2OC)[C@H]3c2ccc(CO)cc2)cc1 , what is its reported z-score?
1.01

For NC(=O)NCC#Cc1ccc2c(c1)[C@]1(C(=O)N2)[C@H](C(=O)NC[C@H](O)c2ccccc2)[C@H]2C(=O)O[C@H](c3ccccc3)[C@H](c3ccccc3)N2[C@@H]1c1ccc(OCCO)cc1 , what is its reported z-score?
1.3

For O=C1C2C=CC(C(O)c3ccc(Br)cc3)N(Nc3ccccc3F)C2C(=O)N1c1ccccc1 (stereo not drawn) , what is its reported z-score?
0.489

For CCCC[C@@H]1C[C@H]1[C@@H](NC(=O)c1cccs1)c1ccc(C(F)(F)F)cc1 , what is its reported z-score?
-0.601

For CO[C@]12C=C(Br)[C@@H](C[C@@H]1c1cccc(C)c1)[C@@]1(CO1)C2=O , what is its reported z-score?
0.478

For [N-]=[N+]=NCc1ccccc1C[C@@]1(C(=O)N2CCOCC2)N=C(c2ccc(OCCCO)cc2)O[C@@H]1c1ccccc1 , what is its reported z-score?
-4.29
